Numbers sourced from patent US11110104B2.

Assay: DON levels in plasma, CSF and basal ganglia of mice (LC-MS/MS)
Type: in vivo
Details: C57Bl, mouse, plasma, 15 minutes after dosing, DON 1 mg/kg, read-out: DON concentration in plasma
assay readout: concentration at 15 min

What does the data say about its concentration at 15 min? Entry: "[N-]=[N+]=CC(=O)CC[C@H](N)C(=O)O" 2500 to 3000 nM

###

Assay: DON levels in plasma, CSF and basal ganglia of mice (LC-MS/MS)
Assay type: in vivo
Conditions: C57Bl, mouse, brain (basal ganglia), 15 minutes after dosing, DON 1 mg/kg, read-out: DON concentration in brain tissue (basal ganglia)
assay readout: concentration at 15 min

Which concentration at 15 min is reported for this molecule? "[N-]=[N+]=CC(=O)CC[C@H](N)C(=O)O" 300 to 500 nM
